FYI, the data here is from patent US10722464B2.

# assay.name: in vivo
# condition: SCID/rag2, mouse, plasma, iv, 10 mg/kg
measure: AUC

Can you share its AUC? I mean this compound: CCC1=C[C@@H]2CN(C1)Cc1c([nH]c3ccccc13)[C@@](C(=O)OC)(c1cc3c(cc1OC)N(C)[C@H]1[C@@](O)(C(=O)OC)[C@H](OC(C)=O)[C@]4(CC)C=CCN5CC[C@]31[C@@H]54)C2 [free vinorelbine, vinorelbine]
112 ng·h/mL
